Exercise: for every item that follows, state its recorded melting point.

Which value of melting point has been reported for CCCOC(=O)c1ccc(N/C=N/O)cc1 in the records?
145 to 146 °C

Fill in the blank: the reported melting point of O/N=C/Nc1ccc(OCCc2cccs2)cc1 is ____.
132 to 134 °C

melting point lookup needed for CN1CCCCC1COc1ccc(N/C=N/O)cc1 (stereo not shown) , thanks.
146.5 to 148 °C

What value of melting point has been reported for the following compound? Cc1cc(N/C=N/O)ccc1C(C)C
121 to 122.5 °C

I have this compound here, CC(C)c1ccccc1N/C=N/O , and I need its recorded melting point.
114 to 115 °C

Fill blank: measured melting point of the compound COc1ccccc1COc1ccc(N/C=N/O)cc1 is ____.
153 to 153.5 °C

Requested field: melting point. Item: CCCc1cc(Br)c(N/C=N/O)c(Br)c1
155 to 156 °C

Please report the recorded melting point for CC(C)(C)c1ccc(N/C=N/O)cc1 .
113.5 to 114.5 °C

Name the recorded melting point for Cc1ccc(N/C=N/O)cc1I .
130.5 to 132 °C

Give the measured melting point of Cc1ccc(N/C=N/O)cc1 .
143.5 to 144.5 °C

So what does the record say about melting point for O/N=C/Nc1ccc(Cc2ccccc2)cc1 ?
118 to 119.5 °C

Which melting point value is on record for Cc1cccc(COc2ccc(N/C=N/O)cc2)n1 ?
146.5 to 149 °C

Could you share which melting point value was measured for COc1ccc(N/C=N/O)c(C)c1 ?
144 to 145 °C

Recorded melting point of CCCC(=O)c1ccc(N/C=N/O)c(C)c1 , please.
154 to 155 °C

Which melting point is listed for Cc1ccc(Oc2ccc(N/C=N/O)cc2)cc1 ?
155 to 156 °C

Need melting point of CC(C)(C)Sc1ccc(N/C=N/O)cc1 , thanks.
143 to 145 °C

Find the recorded melting point belonging to O/N=C/Nc1ccc(F)cc1 and report it.
139.5 to 140.5 °C

Could you share which melting point value was measured for O/N=C/Nc1cccc(Cl)c1 ?
110 to 111.5 °C

melting point for O/N=C/Nc1ccc(SCc2ccco2)cc1 ?
125 to 126.5 °C

What does the data say about its melting point? Entry: Cc1cc(Cl)ccc1N/C=N/O
151 to 152.5 °C

Return reported melting point; argument: CCc1ccc(N/C=N/O)cc1
141 to 142 °C

Reported melting point for O/N=C/Nc1ccc(OCCCOc2ccccc2)cc1 : what is it?
143.5 to 145 °C

Can you share its melting point? I mean this compound: CCOCCCOc1ccc(N/C=N/O)cc1
93 to 94 °C

// melting point lookup, key: O/N=C/Nc1ccc(SCc2ccccc2)cc1
166 °C

// query melting point value for entry O/N=C/Nc1ccc(OCCCc2ccccc2)cc1
152.5 to 153 °C

====

Can you tell me melting point for the items I'm about to list?

I have this compound here, C=CCCOc1ccc(N/C=N/O)cc1 , and I need its recorded melting point.
122 to 124 °C

Quick one: melting point of O/N=C/Nc1ccc(OCCCCCN2CCCCC2)cc1 ?
113 to 115 °C

For the compound O/N=C/Nc1cccc(Oc2ccccc2)c1 , what melting point is on record?
100 to 102 °C

Using the record for CCCCCCCOc1ccc(N/C=N/O)cc1 , report its melting point.
121 to 122.5 °C

Looking for the measured melting point of O/N=C/Nc1ccc(OCC2CCCCO2)cc1 (stereo not drawn) , can you help?
153 to 154.5 °C

Quick one: melting point of O/N=C/Nc1ccc(OCc2cc(F)ccc2F)cc1 ?
167 to 167.5 °C

====

System: 20-HETE synthase originated from rat kidney microsome
assay_details: Inhibitory effect of 20-HETE synthase originated from rat kidney microsome
Type: biochemical
condition_label: 1 μM of the subject compound; 20-HETE production without compound set to 100%
Where Inhibition rate (1 μM) equals or exceeds 100, the correct label is yes; where it does not, the label is no.

Record CSCCOc1ccc(N/C=N/O)cc1 ; criterion: Inhibition rate (1 μM) no lower than 100. Met?
yes

Check the entry CCCCSc1ccc(N/C=N/O)cc1 : does Inhibition rate (1 μM) equal or exceed 100?
no

Please indicate if the recorded Inhibition rate (1 μM) for CN(C)CCCCOc1ccc(N/C=N/O)cc1 meets or exceeds 100.
yes

Answer whether Inhibition rate (1 μM) of CN(C)CCSc1ccc(N/C=N/O)cc1 is greater than or equal to 100.
no

Could you verify whether the entry CN1CCCC(COc2ccc(N/C=N/O)cc2)C1 (centres unmarked) shows Inhibition rate (1 μM) of no less than 100?
yes

Please tell me: is the compound O=C1CCCN1CCOc1ccc(N/C=N/O)cc1 at or over 100 in terms of Inhibition rate (1 μM)?
no

Test whether the compound O/N=C/Nc1ccc(OCC2CCCO2)cc1 (centres unmarked) records Inhibition rate (1 μM) of 100 or higher.
yes

Hi, just wondering whether CN(C)CCCOc1ccc(N/C=N/O)cc1 shows Inhibition rate (1 μM) of 100 or higher.
yes

Check the entry CN1CCCC1CCOc1ccc(N/C=N/O)cc1 (centres unmarked) : does Inhibition rate (1 μM) equal or exceed 100?
no

Determine whether measured Inhibition rate (1 μM) meets or exceeds 100 for O/N=C/Nc1ccc(OCC2COc3ccccc3O2)cc1 (centres unmarked)
yes

====

Test system: 20-HETE synthase originated from rat kidney microsome
assay_details: Inhibitory effect of 20-HETE synthase originated from rat kidney microsome
Type: biochemical
condition_label: concentration at which production of 20-HETE was inhibited to 50%
Returns: string. Value is class 1 if measured IC50 is below 20 nM, and class 0 if it is greater than or equal to it.

For this molecule, is IC50 lower than 20 nM? O/N=C/Nc1ccc(OCCCCCN2CCCCC2)cc1 [Comp. 431]
class 0

Is IC50 strictly under 20 nM for the entry CCOC(=O)CCCCCOc1ccc(N/C=N/O)cc1 [Comp. 424] ?
class 1

Hi there! Is IC50 for CN1CCCC1CCOc1ccc(N/C=N/O)cc1 (stereo not drawn) [Comp. 416] below 20 nM, do you know?
class 1

Please check: IC50 for CN(C)CCCCCCOc1ccc(N/C=N/O)cc1 [Comp. 402] , strictly under 20 nM or not?
class 1

Item CCC(C)Sc1ccc(N/C=N/O)cc1 (stereo not drawn) [Comp. 449] : IC50 beneath 20 nM, strictly?
class 1

# check: IC50 < 20 nM for CC(C)(C)Sc1ccc(N/C=N/O)cc1 [Comp. 456]
class 1

====

Tested on: 20-HETE synthase originated from rat kidney microsome
assay_details: Inhibitory effect of 20-HETE synthase originated from rat kidney microsome
Format: biochemical
condition_label: 1 μM of the subject compound; 20-HETE production without compound set to 100%
The label is fulfilled for Inhibition rate (1 μM) below 100 and not fulfilled for Inhibition rate (1 μM) equal to or exceeding 100.

Quick check: Inhibition rate (1 μM) of CCC(C)Sc1ccc(N/C=N/O)cc1 (stereo not shown) [Comp. 449] under 100?
not fulfilled

Lab log: compare recorded Inhibition rate (1 μM) with 100; is it strictly lower for O/N=C/Nc1ccc(SCc2ccc(Cl)cc2)cc1 [Comp. 437] ?
fulfilled

Item O/N=C/Nc1ccc(OCCn2cccc2)cc1 [Comp. 411] : Inhibition rate (1 μM) beneath 100, strictly?
not fulfilled

Is 100 strictly greater than the compound's reported Inhibition rate (1 μM)? compound: CCCCCCCSc1ccc(N/C=N/O)cc1 [Comp. 452]
not fulfilled

Please state whether Inhibition rate (1 μM) is below 100 for CC(C)Sc1ccc(N/C=N/O)cc1 [Comp. 439]
fulfilled

Lab note: Inhibition rate (1 μM) threshold 100. Does this compound come in strictly under it? O/N=C/Nc1ccc(OCC2CCCCO2)cc1 (stereo not shown) [Comp. 421]
not fulfilled

Problem: For the compound O/N=C/Nc1ccc(SC2CCCC2)cc1 [Comp. 447] , is Inhibition rate (1 μM) under 100?
fulfilled

Dear colleague, could you confirm whether Inhibition rate (1 μM) of CCN(CCOc1ccc(N/C=N/O)cc1)c1cccc(C)c1 [Comp. 405] falls below 100? Thanks.
not fulfilled

# TODO verify Inhibition rate (1 μM) < 100 strictly for this compound: OCCCSc1ccc(N/C=N/O)cc1 [Comp. 459]
not fulfilled

Please indicate whether the reported Inhibition rate (1 μM) of COC(=O)CSc1ccc(N/C=N/O)cc1 [Comp. 446] is strictly below 100.
fulfilled

Hello, I'm reviewing records and need to know if Inhibition rate (1 μM) of CSCCCOc1ccc(N/C=N/O)cc1 [Comp. 414] is below 100. Could you check?
not fulfilled

# strict comparison: is reported Inhibition rate (1 μM) < 100? input = O/N=C/Nc1ccc(OCCCn2cccc2)cc1 [Comp. 412]
not fulfilled

====

Test system: 20-HETE synthase originated from rat kidney microsome
assay_details: Inhibitory effect of 20-HETE synthase originated from rat kidney microsome
Type: biochemical
condition_label: 1 μM of the subject compound; 20-HETE production without compound set to 100%
quantity_measured: Inhibition rate (1 μM)
Note: the reply should be a number with no unit written.

I'd like to know its Inhibition rate (1 μM). The compound in question is O/N=C/Nc1ccc(SCc2ccccc2)cc1
94.2

Report Inhibition rate (1 μM) for O/N=C/Nc1ccc(OCCc2ccsc2)cc1 please.
118.4

May I ask what Inhibition rate (1 μM) has been recorded for O/N=C/Nc1ccc(OCC2CCO2)cc1 (centres unmarked) ?
113.2

Recorded Inhibition rate (1 μM) for CC(C)(C)Sc1ccc(N/C=N/O)cc1 , please?
94.4

Data request, read-out Inhibition rate (1 μM), for CCCCCCCCCSc1ccc(N/C=N/O)cc1
95.3

Value lookup for Inhibition rate (1 μM); key = O/N=C/Nc1ccc(SC2CCCCC2)cc1
87.9

Entry under review: CN(C)CCOCCOc1ccc(N/C=N/O)cc1 . Reported Inhibition rate (1 μM)?
114.9

Endpoint output: Inhibition rate (1 μM) of OCCSc1ccc(N/C=N/O)cc1 . Value?
100.7

Quick one: Inhibition rate (1 μM) of O/N=C/Nc1ccc(OCCc2cccs2)cc1 ?
121.6

// lookup Inhibition rate (1 μM) for CC(C)CCSc1ccc(N/C=N/O)cc1
103.0

Any idea what its Inhibition rate (1 μM) is? The compound is Cn1c(=O)c2c(ncn2CCOc2ccc(N/C=N/O)cc2)n(C)c1=O
73.7
